Values from paper PMC5116745

Biological target: the molecule itself
Experiment: SEC; HiLoad 16/600 Superdex 200 pg; 150 mM NaCl, 25 mM potassium phosphate pH 7.4, 1 mM DTT, 0.3% glycerol; 2 ml/min
readout: stoichiometry N

Some solved entries appear below for comparison.
# protein, obsValue
data = [
    ("HpGroES H100A mutant (natural protein, Helicobacter pylori, UniProt P0A0R3 1-118, looked up, GroES (HspA) of Helicobacter pylori with a point mutation in domain B; Same construct as m1 with the mutation; nickel-loaded during purification; source: E. coli M15 (pQE30), purified (Ni2+-chelating Sepharose, Superdex 200 size exclusion)) MKFQPLGERVLVERLEEENKTSSGIIIPDNAKEKPLMGVVKAVSHKISEGCKCVKEGDVIAFGKYKGAEIVLDGTEYMVLELEDILGIVGSGSCCHTGNADHKHAKEHEACCHDHKKH", 7),
    ("Helicobacter pylori GroES (HpGroES), wild type (natural protein, GroES (HspA) of Helicobacter pylori; domain A plus C-terminal domain B (residues 91-118); Protein was dialysed with 4 molar equivalents of NiSO4 before size exclusion (nickel-loaded); also called WT; heat shock protein (HSP) A; source: E. coli M15 (pQE30), purified (Ni2+-chelating Sepharose, Superdex 200 size exclusion)) MKFQPLGERVLVERLEEENKTSSGIIIPDNAKEKPLMGVVKAVSHKISEGCKCVKEGDVIAFGKYKGAEIVLDGTEYMVLELEDILGIVGSGSCCHTGNHDHKHAKEHEACCHDHKKH", 7),
    ("HpGroES H115A mutant (natural protein, Helicobacter pylori, UniProt P0A0R3 1-118, looked up, GroES (HspA) of Helicobacter pylori with a point mutation in domain B; Same construct as m1 with the mutation; nickel-loaded during purification; source: E. coli M15 (pQE30), purified (Ni2+-chelating Sepharose, Superdex 200 size exclusion)) MKFQPLGERVLVERLEEENKTSSGIIIPDNAKEKPLMGVVKAVSHKISEGCKCVKEGDVIAFGKYKGAEIVLDGTEYMVLELEDILGIVGSGSCCHTGNHDHKHAKEHEACCHDAKKH", 7),
    ("HpGroES H118A mutant (natural protein, Helicobacter pylori, UniProt P0A0R3 1-118, looked up, GroES (HspA) of Helicobacter pylori with a point mutation in domain B; Same construct as m1 with the mutation; nickel-loaded during purification; source: E. coli M15 (pQE30), purified (Ni2+-chelating Sepharose, Superdex 200 size exclusion)) MKFQPLGERVLVERLEEENKTSSGIIIPDNAKEKPLMGVVKAVSHKISEGCKCVKEGDVIAFGKYKGAEIVLDGTEYMVLELEDILGIVGSGSCCHTGNHDHKHAKEHEACCHDHKKA", 7),
]

Turning now to a further protein:
Query :: Answer with reported stoichiometry N of HpGroES H113A mutant (natural protein, Helicobacter pylori, UniProt P0A0R3 1-118, looked up, GroES (HspA) of Helicobacter pylori with a point mutation in domain B; Same construct as m1 with the mutation; nickel-loaded during purification; source: E. coli M15 (pQE30), purified (Ni2+-chelating Sepharose, Superdex 200 size exclusion)) MKFQPLGERVLVERLEEENKTSSGIIIPDNAKEKPLMGVVKAVSHKISEGCKCVKEGDVIAFGKYKGAEIVLDGTEYMVLELEDILGIVGSGSCCHTGNHDHKHAKEHEACCADHKKH
Result :: 7
